assay: qHTS of pediatric cancer cell lines to identify multiple opportunities for drug repurposing: Confirmatory screen for TC32 cells (AID 1347118); conditions: TC32 Ewing sarcoma cells viability qHTS; series mostly up to 45.9 µM;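 further: potency means the concentration at half of the fitted maximal effect; cells exposed to compound for 48 h before the read; nearly all actives have a fitted effect of over 65% in size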
Inconclusive results are not listed. Active and inactive are the calls of the source. The call rests on the fitted dose curve; in most records, active means well fitted cell-killing curve with a large enough effect; inconclusive means small, poorly fitted or top-dose-only effect; inactive means no such curve, though single readings can be large or run the other way.
MEASUREMENT KIND: Potency

Solved cases below.
Query string: What value of Potency has been reported for the following compound? CC[C@@H]1C(=O)N(C)c2cnc(Nc3ccc(C(=O)NC4CCN(C)CC4)cc3OC)nc2N1C1CCCC1
Result string: 52.2 nM (active)

Query string: What value of Potency has been reported for the following compound? CCCCc1nc2cc(C=CC(=O)NO)ccc2n1CCN(CC)CC
Result string: 1310 nM (active)

Query string: Bench note: what Potency did Cc1cc(N2CCOCC2)cc2[nH]c(-c3c(NC[C@@H](O)c4cccc(Cl)c4)cc[nH]c3=O)nc12 show?
Result string: 465 nM (active)

Query string: Form field: reported Potency of COc1c(OCCCN2CCOCC2)ccc2c3n(c(=NC(=O)c4cnc(N)nc4)nc12)CCN3
Result string: 1020 nM (active)

Query string: Looking for the measured Potency of CCn1nnc2c(N3CCOCC3)nc(-c3ccc(NC(=O)Nc4ccc(C(=O)N5CCN(C)CC5)cc4)cc3)nc21 , can you help?
Result string: 293 nM (active)

Query string: Looking for the measured Potency of O=C(Nc1ncc(-c2cc(C(F)F)nn2-c2c(Cl)cccc2Cl)s1)C1CC1 , can you help?
Result string: 369 nM (active)

Query string: Fill in the blank: the reported Potency of O=c1[nH]nc(Sc2ncc([N+](=O)[O-])s2)n1-c1ccc2c(c1)OCCO2 is ____.
Result string: 6570 nM (active)

Query string: Field request: Potency | item: COc1cc2c(Oc3ccc(-c4cnc(Nc5ccc(F)cc5)n(C)c4=O)cc3F)ccnc2cc1OCCCN1CCOCC1
Result string: 2930 nM (active)

// below: Potency requested for another compound
Query string: Please report the recorded Potency for C=CC(=O)N1CCC[C@@H](n2nc(-c3ccc(Oc4ccccc4)cc3)c3c(N)ncnc32)C1 .
Result string: 7370 nM (active)

----------
assay: qHTS drug screen for cell cycle checkpoint inhibitors in PARPi-resistant BRCA-mutant ovarian cancer cell lines. (AID 1963452); conditions: PEO1/OlaR viability, CellTiter-Glo luminescence, 96 h; active compounds read low
List of Z-AUC values.
Reply: number alone, nothing else.

Recorded Z-AUC, per entry:
Query string: Query (molecule): CN1CCN(c2ccc3nc(-c4c(N)c5c(F)cccc5[nH]c4=O)[nH]c3c2)CC1 ; field requested: Z-AUC
Result string: -0.169

Query string: // query Z-AUC value for entry O=c1[nH]c(=O)n(C2CCCO2)cc1F (stereo not given)
Result string: 1.33

Query string: Fill in: Z-AUC of O=C(Cc1ccc(-c2ccc(OCCN3CCOCC3)cc2)cn1)NCc1ccccc1 is ___
Result string: -0.749

Query string: Given the molecule COc1cc(C(=O)NS(=O)(=O)c2ccccc2C)ccc1Cc1cn(C)c2ccc(NC(=O)OC3CCCC3)cc12 , what is its reported Z-AUC?
Result string: 1.83

Query string: Data request, read-out Z-AUC, for c1nc2nc(Nc3ccc(N4CCOCC4)cc3)nc(NC3CCCCC3)c2[nH]1
Result string: -0.117

Query string: Give its Z-AUC value. Item: C=CC(=O)Nc1cccc(Oc2nc(Nc3ccc(N4CCN(C)CC4)cc3OC)ncc2Cl)c1
Result string: -0.915

Query string: Can you share its Z-AUC? I mean this molecule: Cc1nc2cnc3ccc(C#Cc4cccnc4)cc3c2n1-c1ccc(C(C)(C)C#N)cc1
Result string: -0.114

Query string: I'd like to know its Z-AUC. The molecule in question is CNc1nccc(-c2cccnc2Oc2cc(C(=O)Nc3cccc(C(F)(F)F)c3)ccc2C)n1
Result string: 0.523

---
Query string: Which measured Z-AUC value corresponds to CN1c2cc(O)c(N=NC(N)=O)cc2CC1S(=O)(=O)O (stereo not given) ?
Result string: 1.01

Query string: Which Z-AUC value belongs to Cc1c(Cn2c(C)nc3c(C(=O)O)cc(N4CCOCC4)cc32)cccc1C(F)(F)F ?
Result string: 0.672

Query string: Fill in the blank: the reported Z-AUC of COc1cccc(-c2ccc(NC(=O)C3=C(C(=O)O)CCC3)c(F)c2)c1 is ____.
Result string: 0.233

Query string: Please report the recorded Z-AUC for Cc1ccc(CN2CCNCC2)cc1NC(=O)CNc1ccc(F)c(F)c1 .
Result string: -0.297

Query string: # Z-AUC lookup, item O=C(CCCCCCNC(=O)c1cnc(N(c2ccccc2)c2ccccc2)nc1)NO
Result string: 0.809

Query string: Fill in: Z-AUC of O=C(O)CCCc1c[nH]c2ccccc12 is ___
Result string: 0.341

Query string: Need Z-AUC, item Cc1c(CN2CCN(S(C)(=O)=O)CC2)sc2c(N3CCOCC3)nc(-c3cnc(N)nc3)nc12
Result string: 0.0284

Query string: I am curious: what Z-AUC value has been reported for Cc1cnc(-c2cnc(NCCNc3ccc(C#N)cn3)nc2-c2ccc(Cl)cc2Cl)[nH]1 ?
Result string: 1.35

Query string: Name the recorded Z-AUC for COc1cc2c(Oc3ccc(-c4cnc(Nc5ccc(F)cc5)n(C)c4=O)cc3F)ccnc2cc1OCCCN1CCOCC1 .
Result string: -1.38

Query string: Name the reported Z-AUC value associated with the molecule C=C1C(=CC=C2CCC[C@]3(C)[C@@H]([C@H](C)C=C[C@H](C)C(C)C)CC[C@@H]23)C[C@@H](O)C[C@@H]1O
Result string: 0.703

Query string: Given Cc1nc2ccc(CN(C)c3ccc(C(=O)N[C@@H](CCC(=O)O)C(=O)O)s3)cc2c(=O)[nH]1 , state its recorded Z-AUC.
Result string: -1.54

Query string: What value of Z-AUC has been recorded for this entry: Nc1ccccc1NC(=O)c1ccc(CNC(=O)OCc2cccnc2)cc1
Result string: -0.769
